# procedure.text: Carbamate cleavage study of SI spacer-CPT modules (CPT release by HPLC)
# Assay type: physicochemical
# stated.conditions: DMSO/phosphate buffer (pH 7.5), 37 °C, CPT release by HPLC; read-out: carbamate half-life (t1/2) (converted)
test.readout: half-life at 1 mM (h)
I only need the number, in h, no unit after it.

Measured half-life at 1 mM, CC[C@@]1(OC(=O)N(CCCN(C)C)C[C@@H]2CCCN2)C(=O)OCc2c1cc1n(c2=O)Cc2cc3ccccc3nc2-1 : 3.3

For CC[C@@]1(OC(=O)N(C)C[C@@H]2C[C@H](N(C)C)CN2)C(=O)OCc2c1cc1n(c2=O)Cc2cc3ccccc3nc2-1 the molecule record lists half-life at 1 mM as 5.5

Record CC[C@@]1(OC(=O)N(CCN(C)C)C[C@@H]2CCCN2)C(=O)OCc2c1cc1n(c2=O)Cc2cc3ccccc3nc2-1 , field half-life at 1 mM: 0.9

Sure, the documented half-life at 1 mM for CC[C@@]1(OC(=O)N(C)C[C@@H]2C[C@@H](OCCN(C)C)CN2)C(=O)OCc2c1cc1n(c2=O)Cc2cc3ccccc3nc2-1 is 3.2

get_value(item= CC[C@@]1(OC(=O)N(C)C[C@@H]2CCCN2)C(=O)OCc2c1cc1n(c2=O)Cc2cc3ccccc3nc2-1 [Sp2-CPT, reference compound] , readout=half-life at 1 mM) returns 3.6
